The reader will find reported IC50 values listed item by item below.
Biological target: human TLR7 (Homo sapiens (Human), UniProt Q9NYK1)
Sequence (Q9NYK1 27-1049): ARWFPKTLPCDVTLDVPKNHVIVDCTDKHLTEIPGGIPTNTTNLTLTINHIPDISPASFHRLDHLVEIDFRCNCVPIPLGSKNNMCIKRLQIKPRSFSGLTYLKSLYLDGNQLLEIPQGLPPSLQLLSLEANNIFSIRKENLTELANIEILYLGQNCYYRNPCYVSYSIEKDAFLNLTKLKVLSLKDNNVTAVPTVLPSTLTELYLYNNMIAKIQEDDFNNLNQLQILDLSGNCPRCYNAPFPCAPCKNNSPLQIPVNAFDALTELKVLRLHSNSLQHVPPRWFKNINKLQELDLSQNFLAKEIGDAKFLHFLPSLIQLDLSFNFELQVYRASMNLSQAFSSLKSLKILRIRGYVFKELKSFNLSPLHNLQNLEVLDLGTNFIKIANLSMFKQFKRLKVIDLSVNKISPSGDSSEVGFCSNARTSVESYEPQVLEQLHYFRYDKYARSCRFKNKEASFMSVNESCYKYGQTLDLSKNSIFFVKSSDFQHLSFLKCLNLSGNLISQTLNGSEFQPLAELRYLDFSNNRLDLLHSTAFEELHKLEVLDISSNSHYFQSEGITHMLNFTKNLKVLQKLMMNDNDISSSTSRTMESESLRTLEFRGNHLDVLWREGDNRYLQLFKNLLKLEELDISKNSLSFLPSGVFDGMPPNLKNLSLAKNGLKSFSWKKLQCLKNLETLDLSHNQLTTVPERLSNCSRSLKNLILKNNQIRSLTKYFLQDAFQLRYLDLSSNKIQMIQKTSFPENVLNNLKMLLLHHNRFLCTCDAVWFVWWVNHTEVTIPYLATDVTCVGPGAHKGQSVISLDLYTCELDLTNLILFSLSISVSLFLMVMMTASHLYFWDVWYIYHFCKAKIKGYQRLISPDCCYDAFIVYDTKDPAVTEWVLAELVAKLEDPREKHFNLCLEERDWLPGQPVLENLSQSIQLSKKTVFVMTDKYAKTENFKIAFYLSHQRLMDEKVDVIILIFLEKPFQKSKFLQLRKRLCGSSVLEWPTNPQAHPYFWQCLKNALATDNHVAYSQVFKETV
Experiment: TLR7 inhibition reporter assay (HEK-Blue SEAP)
Details: HEK-Blue cells overexpressing human TLR7, gardiquimod 7.5 μM stimulation
Unit nM implied. Number only.

Field: example entries. Status: answers known.
1. CCN(C)C1CCN(c2ncc3[nH]c(-c4cn5ncnc5c(C)c4C)c(C(C)C)c3c2F)CC1 | 1.3
2. Cc1c(-c2[nH]c3cnc(N4CCC(N5CC6(COC6)C5)CC4)c(F)c3c2C(C)C)cn2ncnc2c1C | 1
3. COc1cc(-c2[nH]c3cnc(N4CCC(NC5CCOCC5)CC4)cc3c2C(C)C)cn2ncnc12 | 2.8

// moving on: another record for IC50
Quick one: IC50 of CCN(C)C1CCC(c2ncc3[nH]c(-c4cn5ncnc5c(C)c4C)c(C(C)C)c3c2F)CC1 (stereo not shown) [Example 135] ? 0.24
